- Target desc: EfaUPPS (L146A) (Enterococcus faecalis, UniProt Q831K9, L152A)
- Construct: His tag
- Assay explanation: Microscale thermophoresis binding assay, EfaUPPS L146A
- Setup conditions: MST, no binding
Reported Kd values for a set of molecules
Metric: Kd

INSERT INTO measurements (molecule, obs_value) VALUES
  ('CC(C)=CCC[C@]1(C)C=Cc2c(O)c3c(c(CC=C(C)C)c2O1)O[C@]12C(=C[C@@H]4C[C@H]1C(C)(C)O[C@@]2(C/C=C(/C)C(=O)O)C4=O)C3=O', '> 50 mM'),
  ('CC(C)=CCC[C@]1(C)CC(O)c2c(O)c3c(c(CC=C(C)C)c2O1)O[C@]12C(=C[C@@H]4C[C@H]1C(C)(C)O[C@@]2(C/C=C(/C)C(=O)O)C4=O)C3=O (some centres unmarked)', '> 50 mM');

###

- Target desc: EfaUPPS (I43A) (Enterococcus faecalis, UniProt Q831K9, I49A)
- Construct: His tag
- Assay explanation: Microscale thermophoresis binding assay, EfaUPPS I43A
Metric: Kd

INSERT INTO results (molecule_smiles, obs_value) VALUES
  ('CC(C)=CCC[C@]1(C)C=Cc2c(O)c3c(c(CC=C(C)C)c2O1)O[C@]12C(=C[C@@H]4C[C@H]1C(C)(C)O[C@@]2(C/C=C(/C)C(=O)O)C4=O)C3=O', '> 50 mM');

###

- Target desc: EfaUPPS (I43A) (Enterococcus faecalis, UniProt Q831K9, I49A)
- Construct: His tag
- Assay explanation: UPPS inhibition assay, EfaUPPS I43A mutant
Metric: IC50

INSERT INTO assay_data (molecule_smiles, target_desc, metric, obs_value) VALUES
  ('CC(C)=CCC[C@]1(C)C=Cc2c(O)c3c(c(CC=C(C)C)c2O1)O[C@]12C(=C[C@@H]4C[C@H]1C(C)(C)O[C@@]2(C/C=C(/C)C(=O)O)C4=O)C3=O', 'EfaUPPS (I43A) (Enterococcus faecalis, UniProt Q831K9, I49A)', 'IC50', '~30 µM');

Data provenance is paper PMC9791066.
